biological target: PIK3CA (human)
Threshold 100 nM: IC50 strictly smaller gives class 1, otherwise class 0.

- molecule: "CCc1ncnc(-c2ccc(C(=O)N3CCC(C4CCN(C)CC4)CC3)c(Cl)c2)c1C#Cc1ccc(N)nc1"
  answer_label: "class 0"
- molecule: "CCc1ncnc(-c2ccc(C(=O)N3CCC(N4CCN(C)CC4)CC3)c(C)c2)c1C#Cc1ccc(N)nc1"
  answer_label: "class 0"
- molecule: "CCc1ncnc(-c2ccc(C(=O)N3CC(O)CO3)c(F)c2)c1C#Cc1ccc(N)nc1 (centres undefined)"
  answer_label: "class 1"
- molecule: "CCc1ncnc(-c2ccc(C(=O)N3CCN(C4CCCC4)CC3)c(C)c2)c1C#Cc1ccc(N)nc1"
  answer_label: "class 1"
- molecule: "CCc1ncnc(-c2ccc(C(=O)NC3CCCN(C)C3)c(Cl)c2)c1C#Cc1ccc(N)nc1 (centres undefined)"
  answer_label: "class 0"
- molecule: "Cc1ncnc(-c2ccc(Cl)c(C(=O)N3CCCCC3)c2)c1C#Cc1ccc(N)nc1"
  answer_label: "class 0"
- molecule: "CCNc1ccc(C#Cc2c(CC)ncnc2-c2ccc(C(=O)N3CCN(C4CCC4)CC3)c(F)c2)cn1"
  answer_label: "class 0"
- molecule: "CCc1ncnc(-c2ccc(C(=O)N3CCC(OC)CC3)c(C)c2)c1C#Cc1ccc(N)nc1"
  answer_label: "class 1"
